# test_system: hP2X3 (human Purinergic P2X receptors subtype 3), clone B (Homo sapiens, UniProt P56373)
# Sequence (P56373 1-397): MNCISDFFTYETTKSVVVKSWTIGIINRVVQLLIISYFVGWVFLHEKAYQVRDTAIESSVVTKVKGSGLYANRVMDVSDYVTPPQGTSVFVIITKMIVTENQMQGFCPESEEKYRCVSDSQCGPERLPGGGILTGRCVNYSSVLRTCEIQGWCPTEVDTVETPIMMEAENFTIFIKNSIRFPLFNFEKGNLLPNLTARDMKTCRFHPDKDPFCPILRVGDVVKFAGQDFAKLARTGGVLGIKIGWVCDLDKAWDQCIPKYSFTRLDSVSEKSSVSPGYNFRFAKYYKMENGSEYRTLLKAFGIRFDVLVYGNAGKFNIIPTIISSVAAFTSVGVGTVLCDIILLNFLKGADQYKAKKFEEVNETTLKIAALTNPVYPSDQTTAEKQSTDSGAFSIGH
# assay: hP2X3 FLIPR calcium (Fluo-4) antagonist assay, clone B
# condition: Human P2X3 FLIPR Clone B IC50 (nM), RLE cells expressing hP2X3 clone B (NM_002559); agonist 500 nM α,β-methylene-ATP
I'd appreciate it if you marked entries met when IC50 is lower than 2000 nM and not met when it is not.

* CC(=O)N1CCN(c2nc(NCc3ccc(-c4ccccc4)nc3)c3c(n2)C(=O)N(C(C)C)C3)CC1 | not met
* CC(=O)NCCNc1nc2c(c(N3CCCC3Cc3ccc(Cl)cc3)n1)CN(C(C)C)C2=O (stereo not shown) | not met
* CC(=O)N1CCN(c2nc(NCc3cnc4ccccc4c3)c3c(n2)C(=O)N(C(C)C)C3)C[C@H]1C | met
* CC(C)N1Cc2c(NC(C)(C)Cc3ccc(Cl)cc3)nc(N3CCN(C(=O)N(C)C)CC3)nc2C1=O | not met
* CCN1CCN(c2nc(NC(c3ccccc3)c3ccccn3)c3c(n2)C(=O)N(C(C)C)C3)CC1 (stereo not shown) | not met
* CC[C@H](C)N1Cc2c(nc(N3CCN(C(C)=O)CC3)nc2N(C)Cc2cnc3ccccc3c2)C1=O | met

* * *

# test_system: hP2X3 (human Purinergic P2X receptors subtype 3), clone B (Homo sapiens)
# Sequence (P56373 1-397): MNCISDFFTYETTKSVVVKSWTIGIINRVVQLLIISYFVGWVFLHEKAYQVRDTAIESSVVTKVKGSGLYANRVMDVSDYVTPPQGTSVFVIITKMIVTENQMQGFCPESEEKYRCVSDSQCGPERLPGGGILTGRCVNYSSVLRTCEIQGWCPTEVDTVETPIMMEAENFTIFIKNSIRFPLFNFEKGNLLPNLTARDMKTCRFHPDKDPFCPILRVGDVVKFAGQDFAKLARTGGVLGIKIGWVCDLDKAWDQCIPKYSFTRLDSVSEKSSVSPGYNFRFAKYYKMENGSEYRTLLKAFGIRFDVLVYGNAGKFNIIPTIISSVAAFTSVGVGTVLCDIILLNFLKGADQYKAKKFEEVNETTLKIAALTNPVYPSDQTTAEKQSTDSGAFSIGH
# assay: hP2X3 FLIPR calcium (Fluo-4) antagonist assay, clone B
# condition: Human P2X3 FLIPR Clone B IC50 (nM), RLE cells expressing hP2X3 clone B (NM_002559); agonist 500 nM α,β-methylene-ATP
The following compounds are listed with their measured IC50 values.
readout_label: IC50 (nM)

- CCOc1ccc([C@@H](CO)Nc2nc(N3CCN(C(C)=O)CC3)nc3c2CN(C(C)C)C3=O)cc1: 79
- CC(=O)N1CCN(c2nc3c(c(N4CCCC4c4ccc(N(C)C)cc4)n2)CN(C(C)C)C3=O)CC1 (stereo not shown): 480
- CC(=O)N1CCN(c2nc(N[C@H](C)c3cccc(C(F)(F)F)c3)c3c(n2)C(=O)N(C(C)C)C3)CC1: 87
- CC(=O)N1CCN(c2nc3c(c(N4CCCC4CCc4ccccc4)n2)CN(C(C)C)C3=O)CC1 (stereo not shown): 870
- CC(=O)N1CCN(c2nc(NC3CCc4cc(Cl)ccc43)c3c(n2)C(=O)N(C(C)C)C3)CC1 (stereo not shown): 4200
- CC(=O)N1CCCN(c2nc(NC(C)(C)Cc3ccc(Cl)cc3)c3c(n2)C(=O)N(C(C)C)C3)CC1: 420

Provenance of the data: patent US20090099195A1
